Let's look at some variants and their measured sfGFP reporter fluorescence.
B1: library; numbered along this chain (parent)
chain: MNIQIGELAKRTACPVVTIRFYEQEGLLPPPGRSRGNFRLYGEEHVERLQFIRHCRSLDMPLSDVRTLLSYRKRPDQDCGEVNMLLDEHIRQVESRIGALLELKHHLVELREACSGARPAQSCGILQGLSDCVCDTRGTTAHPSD

Variants of: B1
protocol.summary: sfGFP reporter fluorescence (15 h) (µM FITC); higher = higher leak
test.settings: library round: Round 0; ligand: none

[
  {
    "alteration": "L129T",
    "sfGFP reporter fluorescence": 0.0583
  },
  {
    "alteration": "R39C",
    "sfGFP reporter fluorescence": 0.0599
  },
  {
    "alteration": "E94R",
    "sfGFP reporter fluorescence": 0.0597
  },
  {
    "alteration": "I125Q",
    "sfGFP reporter fluorescence": 0.0588
  },
  {
    "alteration": "L62G",
    "sfGFP reporter fluorescence": 0.0586
  },
  {
    "alteration": "I90Q",
    "sfGFP reporter fluorescence": 0.0597
  },
  {
    "alteration": "V82Y",
    "sfGFP reporter fluorescence": 0.0588
  },
  {
    "alteration": "C134D",
    "sfGFP reporter fluorescence": 0.0616
  },
  {
    "alteration": "N83T",
    "sfGFP reporter fluorescence": 0.0607
  },
  {
    "alteration": "Y22G",
    "sfGFP reporter fluorescence": 0.0594
  },
  {
    "alteration": "L107G",
    "sfGFP reporter fluorescence": 0.0596
  },
  {
    "alteration": "L85Y",
    "sfGFP reporter fluorescence": 0.0592
  },
  {
    "alteration": "C123Q",
    "sfGFP reporter fluorescence": 0.0585
  },
  {
    "alteration": "N83A",
    "sfGFP reporter fluorescence": 0.061
  },
  {
    "alteration": "L40A",
    "sfGFP reporter fluorescence": 0.0608
  },
  {
    "alteration": "K104G",
    "sfGFP reporter fluorescence": 0.0526
  },
  {
    "alteration": "V16Q",
    "sfGFP reporter fluorescence": 0.0663
  },
  {
    "alteration": "L85G",
    "sfGFP reporter fluorescence": 0.0544
  },
  {
    "alteration": "R111G",
    "sfGFP reporter fluorescence": 0.0535
  },
  {
    "alteration": "M60L G128M",
    "sfGFP reporter fluorescence": 0.939
  },
  {
    "alteration": "E7K",
    "sfGFP reporter fluorescence": 0.0662
  },
  {
    "alteration": "G36L",
    "sfGFP reporter fluorescence": 0.0588
  },
  {
    "alteration": "D64V",
    "sfGFP reporter fluorescence": 0.177
  },
  {
    "alteration": "D64F",
    "sfGFP reporter fluorescence": 0.267
  },
  {
    "alteration": "V82C",
    "sfGFP reporter fluorescence": 0.0596
  },
  {
    "alteration": "P61W",
    "sfGFP reporter fluorescence": 0.061
  },
  {
    "alteration": "L126N",
    "sfGFP reporter fluorescence": 0.059
  },
  {
    "alteration": "C114R",
    "sfGFP reporter fluorescence": 0.0594
  },
  {
    "alteration": "E94Y",
    "sfGFP reporter fluorescence": 0.0577
  },
  {
    "alteration": "H45A",
    "sfGFP reporter fluorescence": 0.0599
  },
  {
    "alteration": "L107M",
    "sfGFP reporter fluorescence": 0.0546
  },
  {
    "alteration": "I90N",
    "sfGFP reporter fluorescence": 0.0572
  },
  {
    "alteration": "L68E",
    "sfGFP reporter fluorescence": 0.0623
  },
  {
    "alteration": "C114N",
    "sfGFP reporter fluorescence": 0.0583
  },
  {
    "alteration": "Y22F",
    "sfGFP reporter fluorescence": 0.0629
  },
  {
    "alteration": "C114S",
    "sfGFP reporter fluorescence": 0.0575
  },
  {
    "alteration": "L68P",
    "sfGFP reporter fluorescence": 0.0632
  },
  {
    "alteration": "P61N G128M",
    "sfGFP reporter fluorescence": 0.481
  },
  {
    "alteration": "R111K",
    "sfGFP reporter fluorescence": 0.0575
  },
  {
    "alteration": "I97F",
    "sfGFP reporter fluorescence": 0.0535
  },
  {
    "alteration": "L28Y",
    "sfGFP reporter fluorescence": 0.0621
  },
  {
    "alteration": "G6R",
    "sfGFP reporter fluorescence": 0.0605
  },
  {
    "alteration": "R56A",
    "sfGFP reporter fluorescence": 0.0616
  },
  {
    "alteration": "F21I",
    "sfGFP reporter fluorescence": 0.0597
  },
  {
    "alteration": "P30Q",
    "sfGFP reporter fluorescence": 0.064
  },
  {
    "alteration": "H54A",
    "sfGFP reporter fluorescence": 0.0563
  },
  {
    "alteration": "L126F",
    "sfGFP reporter fluorescence": 0.057
  },
  {
    "alteration": "M60E",
    "sfGFP reporter fluorescence": 0.107
  },
  {
    "alteration": "N83Y",
    "sfGFP reporter fluorescence": 0.0594
  },
  {
    "alteration": "H89C",
    "sfGFP reporter fluorescence": 0.0553
  },
  {
    "alteration": "V82I",
    "sfGFP reporter fluorescence": 0.0572
  },
  {
    "alteration": "L107D",
    "sfGFP reporter fluorescence": 0.0586
  },
  {
    "alteration": "E43S",
    "sfGFP reporter fluorescence": 0.061
  },
  {
    "alteration": "I90L",
    "sfGFP reporter fluorescence": 0.0559
  },
  {
    "alteration": "Y22L",
    "sfGFP reporter fluorescence": 0.0614
  },
  {
    "alteration": "M60D",
    "sfGFP reporter fluorescence": 0.0616
  },
  {
    "alteration": "I19A",
    "sfGFP reporter fluorescence": 0.0577
  },
  {
    "alteration": "N37A",
    "sfGFP reporter fluorescence": 0.0634
  },
  {
    "alteration": "C79I",
    "sfGFP reporter fluorescence": 0.0557
  },
  {
    "alteration": "P30G",
    "sfGFP reporter fluorescence": 0.057
  },
  {
    "alteration": "P143I",
    "sfGFP reporter fluorescence": 0.0553
  },
  {
    "alteration": "V16I",
    "sfGFP reporter fluorescence": 0.0586
  },
  {
    "alteration": "V46S",
    "sfGFP reporter fluorescence": 0.055
  },
  {
    "alteration": "P61N D64K",
    "sfGFP reporter fluorescence": 0.232
  },
  {
    "alteration": "L110P",
    "sfGFP reporter fluorescence": 0.0594
  },
  {
    "alteration": "E109I",
    "sfGFP reporter fluorescence": 0.0592
  },
  {
    "alteration": "L110W",
    "sfGFP reporter fluorescence": 0.057
  },
  {
    "alteration": "C79W",
    "sfGFP reporter fluorescence": 0.0583
  },
  {
    "alteration": "P61N D64K L107C G128M",
    "sfGFP reporter fluorescence": 4.78
  },
  {
    "alteration": "P15E",
    "sfGFP reporter fluorescence": 0.0718
  },
  {
    "alteration": "P15K",
    "sfGFP reporter fluorescence": 0.0634
  },
  {
    "alteration": "G128W",
    "sfGFP reporter fluorescence": 0.0717
  }
]
